Kindly state viability, T/C for each of the entries shown.
Tested on: 186277-243-T-J2-PDC complex spheroids, viability;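 note: spheroids exposed to compounds for 7 days before viability read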
test: Anticancer human tumor 186277-243-T-J2-PDC patient-derived colon adenocarcinoma cell line growth inhibition [RAS]
assayContext: second compound 0.03 µM; first compound 0.01 µM; stronger effect = lower value
Respond numerically; units are % and should not be typed.

Data request: What viability, T/C appears in the records for this compound with 186277-243-T-J2-PDC complex spheroids, viability? CCN1CCN(Cc2ccc(Nc3ncc(F)c(-c4cc(F)c5nc(C)n(C(C)C)c5c4)n3)nc2)CC1 + CCn1c(-c2cc(N3CCN(C)CC3)cnc2C(C)OC)c2c3cc(ccc31)-c1csc(n1)CC(NC(=O)C1CC1C)C(=O)N1CCCC(N1)C(=O)OCC(C)(C)C2
Data returned: 13.7

Data request: What viability, T/C appears in the records for this compound with 186277-243-T-J2-PDC complex spheroids, viability? C=CC(=O)N1CCN(c2nc(OCC3CCCN3C)nc3c(F)c(-c4nc(N)cc(C)c4C(F)(F)F)c(Cl)cc23)C(C)C1 (stereo not drawn) + CCn1c(-c2cc(N3CCN(C)CC3)cnc2C(C)OC)c2c3cc(ccc31)-c1csc(n1)CC(NC(=O)C1CC1C)C(=O)N1CCCC(N1)C(=O)OCC(C)(C)C2
Data returned: 15.7

Data request: What viability, T/C appears in the records for this compound with 186277-243-T-J2-PDC complex spheroids, viability? Nc1ccn(C2OC(CO)C(O)C2(F)F)c(=O)n1 (stereo not drawn) + CCn1c(-c2cccnc2C(C)OC)c2c3cc(ccc31)N1CCOC(CC(NC(=O)C(C(C)C)N(C)C(=O)C3(F)CCN(C(=O)C#CC(C)(C)N(C)C)CC3)C(=O)N3CCCC(N3)C(=O)OCC(C)(C)C2)C1
Data returned: 10.9

Data request: What viability, T/C appears in the records for this compound with 186277-243-T-J2-PDC complex spheroids, viability? C=CC(=O)N1CCN(c2nc(OCC3CCCN3C)nc3c(F)c(-c4nc(N)cc(C)c4C(F)(F)F)c(Cl)cc23)C(C)C1 (stereo not drawn) + CCn1c(-c2cccnc2C(C)OC)c2c3cc(ccc31)N1CCOC(CC(NC(=O)C(C(C)C)N(C)C(=O)C3(F)CCN(C(=O)C#CC(C)(C)N(C)C)CC3)C(=O)N3CCCC(N3)C(=O)OCC(C)(C)C2)C1
Data returned: 105

Data request: What viability, T/C appears in the records for this compound with 186277-243-T-J2-PDC complex spheroids, viability? C=CC(=O)Nc1cc(Nc2nccc(-c3cn(C)c4ccccc34)n2)c(OC)cc1N(C)CCN(C)C + CCn1c(-c2cccnc2C(C)OC)c2c3cc(ccc31)N1CCOC(CC(NC(=O)C(C(C)C)N(C)C(=O)C3(F)CCN(C(=O)C#CC(C)(C)N(C)C)CC3)C(=O)N3CCCC(N3)C(=O)OCC(C)(C)C2)C1
Data returned: 97.4

Data request: What viability, T/C appears in the records for this compound with 186277-243-T-J2-PDC complex spheroids, viability? O=C(c1ccc(F)c(F)c1Nc1ccc(I)cc1F)N1CC(O)([C@@H]2CCCCN2)C1 + CCn1c(-c2cc(N3CCN(C)CC3)cnc2C(C)OC)c2c3cc(ccc31)-c1csc(n1)CC(NC(=O)C1CC1C)C(=O)N1CCCC(N1)C(=O)OCC(C)(C)C2
Data returned: 9.48

Data request: What viability, T/C appears in the records for this compound with 186277-243-T-J2-PDC complex spheroids, viability? CC(C)n1nc(-c2ccc3oc(N)nc3c2)c2c(N)ncnc21 + CCn1c(-c2cc(N3CCN(C)CC3)cnc2C(C)OC)c2c3cc(ccc31)-c1csc(n1)CC(NC(=O)C1CC1C)C(=O)N1CCCC(N1)C(=O)OCC(C)(C)C2
Data returned: 6.52

Data request: What viability, T/C appears in the records for this compound with 186277-243-T-J2-PDC complex spheroids, viability? O=C(c1ccc(F)c(F)c1Nc1ccc(I)cc1F)N1CC(O)([C@@H]2CCCCN2)C1 + CCn1c(-c2cccnc2C(C)OC)c2c3cc(ccc31)N1CCOC(CC(NC(=O)C(C(C)C)N(C)C(=O)C3(F)CCN(C(=O)C#CC(C)(C)N(C)C)CC3)C(=O)N3CCCC(N3)C(=O)OCC(C)(C)C2)C1
Data returned: 93.9
